Recorded values, source PubChem BioAssay (Tox21).

Tested Target: Cytochrome P450 2D6 (Homo sapiens) (UniProt P10635)
Sequence (P10635 whole entry, looked up): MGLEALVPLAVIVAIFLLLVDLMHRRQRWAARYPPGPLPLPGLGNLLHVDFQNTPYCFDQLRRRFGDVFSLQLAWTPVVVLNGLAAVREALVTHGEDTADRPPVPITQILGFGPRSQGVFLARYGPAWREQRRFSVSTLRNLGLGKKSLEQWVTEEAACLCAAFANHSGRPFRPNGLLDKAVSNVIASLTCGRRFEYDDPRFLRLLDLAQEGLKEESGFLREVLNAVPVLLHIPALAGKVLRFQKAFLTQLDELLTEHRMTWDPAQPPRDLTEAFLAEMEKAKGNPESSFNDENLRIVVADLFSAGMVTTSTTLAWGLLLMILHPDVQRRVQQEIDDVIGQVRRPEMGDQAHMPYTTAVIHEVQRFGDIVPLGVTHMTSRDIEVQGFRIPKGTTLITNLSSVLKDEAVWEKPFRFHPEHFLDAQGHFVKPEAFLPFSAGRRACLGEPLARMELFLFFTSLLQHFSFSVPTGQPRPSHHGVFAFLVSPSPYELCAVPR
Assay: Cytochrome P450 Family 2 Subfamily D Member 6 (CYP2D6) small molecule antagonists: luciferase reporter qHTS assay (AID 1671196); also: nearly all actives have a fitted effect of over 50% in size
Protocol Conditions: P450-Glo CYP2D6 enzyme assay, luciferin luminescence, 1 h; series mostly up to 115 µM
Records with an inconclusive call do not appear. Activity calls are given as the source filed them. Calls follow the shape of the dose curve; as a rule, active = well fitted inhibition curve with a large enough effect in the repeat runs; inconclusive = weak or mixed curves; inactive = no such curve, though single readings can be large or run the other way.
Outcome codes: YES (active), NO (inactive)

[
  {
    "Molecule": "CN1CCC(N(Cc2ccccc2)c2ccccc2)CC1",
    "Tested Target": "Cytochrome P450 2D6 (Homo sapiens) (UniProt P10635)",
    "Cat": "YES"
  },
  {
    "Molecule": "CCC(C)(C)c1cc(-n2nc3ccccc3n2)c(O)c(C(C)(C)CC)c1",
    "Tested Target": "Cytochrome P450 2D6 (Homo sapiens) (UniProt P10635)",
    "Cat": "YES"
  },
  {
    "Molecule": "CSc1ccc(C(=O)C(C)(C)N2CCOCC2)cc1",
    "Tested Target": "Cytochrome P450 2D6 (Homo sapiens) (UniProt P10635)",
    "Cat": "YES"
  },
  {
    "Molecule": "CCN(CC)C(=O)[C@@H]1C=C2c3cccc4[nH]cc(c34)C[C@H]2N(C)C1",
    "Tested Target": "Cytochrome P450 2D6 (Homo sapiens) (UniProt P10635)",
    "Cat": "YES"
  },
  {
    "Molecule": "CC(CC(C#N)(c1ccccc1)c1ccccc1)N(C)C (stereo unspecified)",
    "Tested Target": "Cytochrome P450 2D6 (Homo sapiens) (UniProt P10635)",
    "Cat": "YES"
  },
  {
    "Molecule": "CCCSC(=O)N(CCC)CCC",
    "Tested Target": "Cytochrome P450 2D6 (Homo sapiens) (UniProt P10635)",
    "Cat": "NO"
  },
  {
    "Molecule": "Clc1ccccc1N1CCNCC1",
    "Tested Target": "Cytochrome P450 2D6 (Homo sapiens) (UniProt P10635)",
    "Cat": "YES"
  },
  {
    "Molecule": "COc1cc(OC)nc(Oc2cccc(Oc3nc(OC)cc(OC)n3)c2C(=O)O)n1",
    "Tested Target": "Cytochrome P450 2D6 (Homo sapiens) (UniProt P10635)",
    "Cat": "NO"
  },
  {
    "Molecule": "O=C(Nc1ccccc1)N(Cc1ccc(Cl)cc1)C1CCCC1",
    "Tested Target": "Cytochrome P450 2D6 (Homo sapiens) (UniProt P10635)",
    "Cat": "YES"
  },
  {
    "Molecule": "O=[N+]([O-])c1cccc(O)c1",
    "Tested Target": "Cytochrome P450 2D6 (Homo sapiens) (UniProt P10635)",
    "Cat": "NO"
  },
  {
    "Molecule": "COc1ccc2c(c1OC)CN1CCc3cc4c(cc3C1C2)OCO4 (stereo unspecified)",
    "Tested Target": "Cytochrome P450 2D6 (Homo sapiens) (UniProt P10635)",
    "Cat": "YES"
  },
  {
    "Molecule": "CCOC(=O)N(C)C(=O)CSP(=S)(OCC)OCC",
    "Tested Target": "Cytochrome P450 2D6 (Homo sapiens) (UniProt P10635)",
    "Cat": "YES"
  },
  {
    "Molecule": "CC(C)COP(=O)(OCC(C)C)OCC(C)C",
    "Tested Target": "Cytochrome P450 2D6 (Homo sapiens) (UniProt P10635)",
    "Cat": "NO"
  },
  {
    "Molecule": "CCOP(=O)(N=C1SCCS1)OCC",
    "Tested Target": "Cytochrome P450 2D6 (Homo sapiens) (UniProt P10635)",
    "Cat": "NO"
  },
  {
    "Molecule": "CNC(=O)Oc1c(C(C)(C)C)cc(C)cc1C(C)(C)C",
    "Tested Target": "Cytochrome P450 2D6 (Homo sapiens) (UniProt P10635)",
    "Cat": "NO"
  },
  {
    "Molecule": "CCN(Cc1ccc(Cl)nc1)/C(=C/[N+](=O)[O-])NC",
    "Tested Target": "Cytochrome P450 2D6 (Homo sapiens) (UniProt P10635)",
    "Cat": "NO"
  },
  {
    "Molecule": "Cc1ncsc1CCCl",
    "Tested Target": "Cytochrome P450 2D6 (Homo sapiens) (UniProt P10635)",
    "Cat": "NO"
  },
  {
    "Molecule": "O=C(CCCN1CCC(n2c(=O)[nH]c3ccccc32)CC1)c1ccc(F)cc1",
    "Tested Target": "Cytochrome P450 2D6 (Homo sapiens) (UniProt P10635)",
    "Cat": "YES"
  },
  {
    "Molecule": "Cc1nc(N)nc(N)n1",
    "Tested Target": "Cytochrome P450 2D6 (Homo sapiens) (UniProt P10635)",
    "Cat": "NO"
  },
  {
    "Molecule": "Cc1ncc2n1-c1ccc(Cl)cc1C(c1ccccc1F)=NC2",
    "Tested Target": "Cytochrome P450 2D6 (Homo sapiens) (UniProt P10635)",
    "Cat": "NO"
  },
  {
    "Molecule": "O=C(O)C(Br)CBr (stereo unspecified)",
    "Tested Target": "Cytochrome P450 2D6 (Homo sapiens) (UniProt P10635)",
    "Cat": "YES"
  },
  {
    "Molecule": "ClC(Cl)C(Cl)Cl",
    "Tested Target": "Cytochrome P450 2D6 (Homo sapiens) (UniProt P10635)",
    "Cat": "NO"
  },
  {
    "Molecule": "COc1cccc(C(=O)NN(C(=O)c2cc(C)cc(C)c2)C(C)(C)C)c1C",
    "Tested Target": "Cytochrome P450 2D6 (Homo sapiens) (UniProt P10635)",
    "Cat": "YES"
  },
  {
    "Molecule": "Cc1nnc2n1-c1sc(CCC(=O)N3CCOCC3)cc1C(c1ccccc1Cl)=NC2",
    "Tested Target": "Cytochrome P450 2D6 (Homo sapiens) (UniProt P10635)",
    "Cat": "NO"
  },
  {
    "Molecule": "CC1(C(=O)Nc2ccc(O)c(Cl)c2Cl)CCCCC1",
    "Tested Target": "Cytochrome P450 2D6 (Homo sapiens) (UniProt P10635)",
    "Cat": "YES"
  },
  {
    "Molecule": "O=[N+]([O-])c1ccc(CBr)cc1",
    "Tested Target": "Cytochrome P450 2D6 (Homo sapiens) (UniProt P10635)",
    "Cat": "NO"
  },
  {
    "Molecule": "O=C(CCN1CC1)OCC(CO)(COC(=O)CCN1CC1)COC(=O)CCN1CC1",
    "Tested Target": "Cytochrome P450 2D6 (Homo sapiens) (UniProt P10635)",
    "Cat": "NO"
  },
  {
    "Molecule": "Nc1ccccc1Cl",
    "Tested Target": "Cytochrome P450 2D6 (Homo sapiens) (UniProt P10635)",
    "Cat": "YES"
  },
  {
    "Molecule": "Cc1cccc(C#N)c1",
    "Tested Target": "Cytochrome P450 2D6 (Homo sapiens) (UniProt P10635)",
    "Cat": "NO"
  },
  {
    "Molecule": "O=C1CN2CCOC2(c2ccccc2Cl)c2cc(Cl)ccc2N1 (stereo unspecified)",
    "Tested Target": "Cytochrome P450 2D6 (Homo sapiens) (UniProt P10635)",
    "Cat": "YES"
  },
  {
    "Molecule": "CC(=O)C(Cl)Cl",
    "Tested Target": "Cytochrome P450 2D6 (Homo sapiens) (UniProt P10635)",
    "Cat": "NO"
  },
  {
    "Molecule": "CCCCOC(=O)c1ccccc1N",
    "Tested Target": "Cytochrome P450 2D6 (Homo sapiens) (UniProt P10635)",
    "Cat": "NO"
  },
  {
    "Molecule": "CC(C1CC1)C(O)(Cn1cncn1)c1ccc(Cl)cc1 (stereo unspecified)",
    "Tested Target": "Cytochrome P450 2D6 (Homo sapiens) (UniProt P10635)",
    "Cat": "YES"
  },
  {
    "Molecule": "CCNc1nc(NC(C)C)nc(OC)n1",
    "Tested Target": "Cytochrome P450 2D6 (Homo sapiens) (UniProt P10635)",
    "Cat": "NO"
  },
  {
    "Molecule": "CCOc1nc(C(Cl)(Cl)Cl)ns1",
    "Tested Target": "Cytochrome P450 2D6 (Homo sapiens) (UniProt P10635)",
    "Cat": "NO"
  },
  {
    "Molecule": "COc1cc(OC)nc(NC(=O)NS(=O)(=O)c2ncccc2C(=O)N(C)C)n1",
    "Tested Target": "Cytochrome P450 2D6 (Homo sapiens) (UniProt P10635)",
    "Cat": "NO"
  },
  {
    "Molecule": "N#CCCC#N",
    "Tested Target": "Cytochrome P450 2D6 (Homo sapiens) (UniProt P10635)",
    "Cat": "NO"
  },
  {
    "Molecule": "CCCSP(=O)(OCC)Oc1ccc(Br)cc1Cl (stereo unspecified)",
    "Tested Target": "Cytochrome P450 2D6 (Homo sapiens) (UniProt P10635)",
    "Cat": "YES"
  },
  {
    "Molecule": "c1cc[c]([Hg][c]2ccccc2)cc1",
    "Tested Target": "Cytochrome P450 2D6 (Homo sapiens) (UniProt P10635)",
    "Cat": "YES"
  },
  {
    "Molecule": "CN(N=O)C(N)=O",
    "Tested Target": "Cytochrome P450 2D6 (Homo sapiens) (UniProt P10635)",
    "Cat": "NO"
  },
  {
    "Molecule": "N#CC(Cl)(Cl)Cl",
    "Tested Target": "Cytochrome P450 2D6 (Homo sapiens) (UniProt P10635)",
    "Cat": "YES"
  }
]
